Target: T1, O3-bN
T1 chain: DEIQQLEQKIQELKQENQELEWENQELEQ
Assay: two-hybrid library CCNG1;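 note: natural log of median RNA to DNA barcode read ratio; higher means stronger binding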
reported_metric: interaction score

DEIQQLEQKIQELKQKNQELKWKNQELKQ [O12-bN] : 0.565
DKIQQLKQEIQELEQENQELEWENQELEQ [O11-bN] : -0.437
DENQQLEQEIQELEQENQELEWKIQELKQ [O14-bN] : 0.477

a = DKNQQLKQENQELEQEIQELEWEIQELEQ [O1-bN]
b = DENQQLEQKNQELKQKIQELKWKIQELKQ [O2-bN]
c = DKNQQLKQENQELEQKIQELKWKIQELKQ [O10-bN]
d = DKNQQLKQKIQELKQKNQELKWEIQELEQ [O13-bN]
e = DEIQQLEQENQELEQKIQELKWENQELEQ [O15-bN]
List by increasing interaction score. Answer by listing the labels in the requested order.
a, b, d, e, c
(a: -2.11, b: -1.2, d: -0.827, e: -0.189, c: 0.129)
